The values you see were collected from the RNAGym collection of RNA variant scans (doi:10.1038/nmeth.2970).

B1: NELF-E aptamer (parent)
chain: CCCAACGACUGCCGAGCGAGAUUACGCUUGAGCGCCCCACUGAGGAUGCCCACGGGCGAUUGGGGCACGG

Variants of: B1
testMethodNotes: HiTS-RAP
setupConditions: with NELF-E (Drosophila)
pKd: −log10 of the molar value.
property: pKd

# mutationLabel, property, endpointValue
records = [
    ("A4U U22G", "pKd", 8.23),
    ("A5U G7U", "pKd", 8.16),
    ("G63A", "pKd", 7.89),
    ("A5G C38U", "pKd", 8.01),
    ("U23G G64A", "pKd", 8.18),
    ("U22G G48A", "pKd", 8.04),
    ("U22G C36G", "pKd", 8.13),
]
